- EXPERIMENTAL DETAILS: Intrinsic clearance in human liver hepatocytes measured per 10^6 cells incubated upto 2 hrs by LC-MS/MS analysis
- Assay type: ADME, cell-based, Hepatocyte
- REPORTED CONDITIONS: read-out: CLH
I'd be grateful if you could share measured log10 hepatocyte CLint for these entries.
Recall that a logarithmic scale is used here: each number is log10 of hepatocyte CLint in µL/min/1e6 cells.

Record O=C(Nc1nccs1)C(c1ncn2c1CCC2)N1Cc2c(cc(C#Cc3ccc(CN4CCC(CO)CC4)cc3)cc2C(F)(F)F)C1=O (configuration not stated) . Reported log10 hepatocyte CLint: 0.52

Record CC1(C)CCc2c(C(C(=O)Nc3nccs3)N3Cc4c(cc(C#Cc5ccc(CN6CCC(CO)CC6)cc5)cc4C(F)F)C3=O)ncn21 (configuration not stated) . Reported log10 hepatocyte CLint: 0.70

Record O=C(Nc1nccs1)C(c1ncn2c1CCC2)N1Cc2c(F)cc(C#Cc3ccc(CN4CCC(O)CC4)cc3)cc2C1=O (configuration not stated) . Reported log10 hepatocyte CLint: 0.20

Record O=C(Nc1nccs1)C(c1ncn2c1CCC2)N1Cc2ccc(C#Cc3ccc(CN4CCCCC4)cc3)cc2C1=O (configuration not stated) . Reported log10 hepatocyte CLint: 0.81

Record O=C(Nc1nccs1)C(c1ncn2c1CCC2)N1Cc2c(cc(C#Cc3ccc(CN4CCC(CO)CC4)cc3)cc2C(F)F)C1=O (configuration not stated) . Reported log10 hepatocyte CLint: 0.49

Record O=C(Nc1nccs1)C(c1cc(F)ccc1O)N1Cc2ccccc2C1=O (configuration not stated) . Reported log10 hepatocyte CLint: 1.83

Record O=C(Nc1nccs1)C(c1ncn2c1CCC2)N1Cc2c(Cl)cccc2C1=O (configuration not stated) . Reported log10 hepatocyte CLint: 0.85

====

- EXPERIMENTAL DETAILS: Intrinsic clearance in mouse liver hepatocytes measured per 10^6 cells incubated upto 2 hrs by LC-MS/MS analysis
- Assay type: ADME, cell-based, Hepatocyte
- REPORTED CONDITIONS: read-out: CLH
Think of 30 µL/min/1e6 cells as a floor: if hepatocyte CLint stands on it or above, it is fulfilled; beneath it, not fulfilled.

Say whether O=C(Nc1nccs1)C(c1ncn2c1CCC2)N1Cc2ccc(C#Cc3ccc(CN4CCCCC4)cc3)cc2C1=O (configuration not stated) shows hepatocyte CLint of 30 µL/min/1e6 cells or more.
not fulfilled

Say whether O=C(Nc1nccs1)C(c1cc(F)ccc1O)N1Cc2ccccc2C1=O (configuration not stated) shows hepatocyte CLint of 30 µL/min/1e6 cells or more.
not fulfilled

Say whether CC1(C)CCc2c(C(C(=O)Nc3nccs3)N3Cc4c(cc(C#Cc5ccc(CN6CCC(CO)CC6)cc5)cc4C(F)F)C3=O)ncn21 (configuration not stated) shows hepatocyte CLint of 30 µL/min/1e6 cells or more.
not fulfilled

Say whether O=C(Nc1nccs1)C(c1ncn2c1CCC2)N1Cc2c(Cl)cccc2C1=O (configuration not stated) shows hepatocyte CLint of 30 µL/min/1e6 cells or more.
fulfilled

Say whether O=C(Nc1nccs1)C(c1ncn2c1CCC2)N1Cc2c(cc(C#Cc3ccc(CN4CCC(CO)CC4)cc3)cc2C(F)F)C1=O (configuration not stated) shows hepatocyte CLint of 30 µL/min/1e6 cells or more.
fulfilled

Say whether O=C(Nc1nccs1)C(c1ncn2c1CCC2)N1Cc2c(F)cc(C#Cc3ccc(CN4CCC(O)CC4)cc3)cc2C1=O (configuration not stated) shows hepatocyte CLint of 30 µL/min/1e6 cells or more.
not fulfilled

Say whether O=C(Nc1nccs1)C(c1ncn2c1CCC2)N1Cc2c(cc(C#Cc3ccc(CN4CCC(CO)CC4)cc3)cc2C(F)(F)F)C1=O (configuration not stated) shows hepatocyte CLint of 30 µL/min/1e6 cells or more.
fulfilled

====

- EXPERIMENTAL DETAILS: Clearance in CD1 mouse at 1 mg/kg, iv administered as single dose measured after 24 hrs by LC-MS/MS analysis
- Assay type: ADME, organism-based
- REPORTED CONDITIONS: in vivo
MEASUREMENT KIND: clearance (mL/min/kg)
Number in mL/min/kg, nothing else.

Record Cc1c(C#Cc2ccc(CN3CCC(CO)CC3)cc2)cc(C(F)F)c2cn(C(C(=O)Nc3nccs3)c3ncn4c3CCC43CC3)nc12 (stereo unspecified) . Reported clearance: 20

====

- System: BaF3
- EXPERIMENTAL DETAILS: Cytotoxicity against mouse BaF3 cells harboring EGFR L858R/C797S mutant assessed as reduction in cell viability measured after 72 hrs by cell titre glo luminescence assay
- Type: functional, cell-based
- REPORTED CONDITIONS: BaF3, time 72 hrs
I'd be grateful if you could share measured IC90 for these entries.
Number in nM, nothing else.

Record O=C(Nc1nccs1)C(c1cc(F)ccc1O)N1Cc2ccc(-c3ccc(N4CCNCC4)cc3)cc2C1=O (stereo not drawn) . Reported IC90: 7280

Record O=C(Nc1nccs1)C(c1ncn2c1CCC2)N1Cc2c(cc(C#Cc3ccc(CN4CCC(CO)CC4)cc3)cc2C(F)(F)F)C1=O (stereo not drawn) . Reported IC90: 5

Record O=C(Nc1nccs1)C(c1ncn2c1C[C@@H](F)C2)n1cc2c(Cl)cc(-c3ccc(N4CCN(C5CC5)CC4)cc3)c(Cl)c2n1 (mixture of isomers) . Reported IC90: 104

Record O=C(Nc1nccs1)C(c1ncn2c1CCC2)N1Cc2c(F)cc(C#Cc3ccc(CN4CCC(O)CC4)cc3)cc2C1=O (stereo not drawn) . Reported IC90: 285

Record O=C(Nc1nccs1)C(c1ncn2c1CCC2)n1cc2c(Cl)cc(-c3ccc(N4CCOCC4)cc3)c(Cl)c2n1 (stereo not drawn) . Reported IC90: 126

Record O=C(Nc1nccs1)C(c1ncn2c1CCC2)N1Cc2c(F)cc(C#Cc3ccc(CN4CCCCC4)cc3)cc2C1=O (stereo not drawn) . Reported IC90: 711

Record CC1(C)CCc2c(C(C(=O)Nc3nccs3)N3Cc4c(cc(C#Cc5ccc(CN6CCC(CO)CC6)cc5)cc4C(F)F)C3=O)ncn21 (stereo not drawn) . Reported IC90: 2

Record O=C(Nc1nccs1)C(c1ncn2c1CCC2)N1Cc2c(F)cc(C#Cc3cccnc3)cc2C1=O (stereo not drawn) . Reported IC90: 7000

Record CCN1CCN(c2ccc(-c3cc(Cl)c4cn(C(C(=O)Nc5nccs5)c5ncn6c5C[C@@H](F)C6)nc4c3Cl)cc2)CC1 (mixture of isomers) . Reported IC90: 42

Record O=C(Nc1nccs1)C(c1ncn2c1CCC2)N1Cc2ccc(C#Cc3ccc(CN4CCC(O)CC4)cc3)cc2C1=O (stereo not drawn) . Reported IC90: 3250

Record O=C(Nc1nccs1)C(c1ncn2c1CCC2)N1Cc2c(cc(C#Cc3ccc(CN4CCC(CO)CC4)cc3)cc2C(F)F)C1=O (stereo not drawn) . Reported IC90: 12

Record O=C(Nc1nccs1)C(c1ncn2c1CCC2)N1Cc2ccc(C#Cc3ccc(CN4CCCCC4)cc3)cc2C1=O (stereo not drawn) . Reported IC90: 3100

Record CCN1CCN(c2ccc(-c3cc(Cl)c4cn(C(C(=O)Nc5nccs5)c5ncn6c5CCC6)nc4c3Cl)cc2)CC1 (stereo not drawn) . Reported IC90: 70

Record CCN1CCN(c2ccc(-c3cc(F)c4cn(C(C(=O)Nc5nccs5)c5ncn6c5CCC6)nc4c3)cc2)CC1 (stereo not drawn) . Reported IC90: 2600

Record O=C(Nc1nccs1)C(c1ncn2c1CCC2)N1Cc2c(F)cc(C#Cc3ccc(CN4CCC(CO)CC4)cc3)cc2C1=O (stereo not drawn) . Reported IC90: 47

====

- TESTED ON: Epidermal growth factor receptor (Homo sapiens, UniProt P00533, C797S/L858R)
- Sequence (P00533 25-1210 C797S/L858R limits assumed): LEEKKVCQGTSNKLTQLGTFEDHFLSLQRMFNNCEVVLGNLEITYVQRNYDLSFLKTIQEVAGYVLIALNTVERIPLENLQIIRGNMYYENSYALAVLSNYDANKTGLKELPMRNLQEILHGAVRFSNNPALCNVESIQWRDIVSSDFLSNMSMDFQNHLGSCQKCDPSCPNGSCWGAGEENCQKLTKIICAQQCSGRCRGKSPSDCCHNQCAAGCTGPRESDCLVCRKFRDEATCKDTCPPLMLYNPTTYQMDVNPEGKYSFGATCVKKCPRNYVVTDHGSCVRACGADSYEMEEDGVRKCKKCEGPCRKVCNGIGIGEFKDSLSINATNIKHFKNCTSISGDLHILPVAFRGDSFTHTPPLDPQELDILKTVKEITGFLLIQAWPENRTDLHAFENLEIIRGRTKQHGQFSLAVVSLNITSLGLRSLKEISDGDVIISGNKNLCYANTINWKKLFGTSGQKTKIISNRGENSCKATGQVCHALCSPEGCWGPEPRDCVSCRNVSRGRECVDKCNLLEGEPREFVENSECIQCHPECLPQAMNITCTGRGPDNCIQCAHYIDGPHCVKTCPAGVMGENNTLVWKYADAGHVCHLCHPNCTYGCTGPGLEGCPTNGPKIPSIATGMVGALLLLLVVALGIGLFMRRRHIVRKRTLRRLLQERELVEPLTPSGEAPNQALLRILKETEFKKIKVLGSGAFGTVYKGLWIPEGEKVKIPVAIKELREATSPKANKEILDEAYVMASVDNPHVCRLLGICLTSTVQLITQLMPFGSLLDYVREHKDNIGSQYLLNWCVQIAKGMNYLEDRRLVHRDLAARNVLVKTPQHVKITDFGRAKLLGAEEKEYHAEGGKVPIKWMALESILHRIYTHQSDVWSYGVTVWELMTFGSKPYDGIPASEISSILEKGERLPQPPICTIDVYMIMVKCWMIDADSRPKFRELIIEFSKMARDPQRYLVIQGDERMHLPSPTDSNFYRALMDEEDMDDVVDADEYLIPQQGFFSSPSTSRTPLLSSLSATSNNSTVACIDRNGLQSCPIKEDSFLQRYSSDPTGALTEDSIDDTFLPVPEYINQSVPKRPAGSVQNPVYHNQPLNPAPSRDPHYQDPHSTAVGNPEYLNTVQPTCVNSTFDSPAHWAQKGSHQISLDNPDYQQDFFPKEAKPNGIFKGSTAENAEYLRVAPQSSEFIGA
pIC50: −log10 of the molar value.
Think of 7 as a floor: if pIC50 stands on it or above, it is 1.0; beneath it, 0.0.

Say whether O=C(Nc1nccs1)C(c1cc[nH]n1)N1Cc2ccccc2C1=O (centres undefined) shows pIC50 of 7 or more.
0.0

Say whether O=C(Nc1nccs1)C(c1ncn2c1CCC2)n1cc2c(Cl)cc(-c3ccc(N4CCOCC4)cc3)c(Cl)c2n1 (centres undefined) shows pIC50 of 7 or more.
1.0

Say whether O=C(Nc1nccs1)C(c1ncn2c1CCC2)N1Cc2c(cc(C#Cc3ccc(CN4CCC(CO)CC4)cc3)cc2C(F)(F)F)C1=O (centres undefined) shows pIC50 of 7 or more.
1.0

Say whether O=C(Nc1nccs1)C(c1ncn2c1CCC2)N1Cc2ccc(C#Cc3cccnc3)cc2C1=O (centres undefined) shows pIC50 of 7 or more.
0.0

Say whether O=C(Nc1nccs1)C(c1n[nH]c2c1CCC2)N1Cc2ccccc2C1=O (centres undefined) shows pIC50 of 7 or more.
0.0

Say whether Cc1[nH]nc(C(C(=O)Nc2nccs2)N2Cc3ccccc3C2=O)c1C (centres undefined) shows pIC50 of 7 or more.
0.0

Say whether O=C(Nc1nccs1)C(c1ncn2c1CCC2)N1Cc2ccc(C#Cc3ccc(CN4CCC(O)CC4)cc3)cc2C1=O (centres undefined) shows pIC50 of 7 or more.
0.0

Say whether O=C(Nc1nccs1)C(c1ncn2c1CCC2)N1Cc2c(F)cc(C#Cc3ccc(CN4CCCCC4)cc3)cc2C1=O (centres undefined) shows pIC50 of 7 or more.
1.0

Say whether O=C(Nc1nccs1)C(c1ncn2c1CCC2)N1Cc2c(Cl)cccc2C1=O (centres undefined) shows pIC50 of 7 or more.
0.0
